Tested on: MDA-MB-435 melanoma
MEASUREMENT DESCRIPTION: NCI-60 one-dose screen, 48 h
CONDITIONS: 10 µM unless noted
Compounds without any hit were thinned out: in the full panel of roughly 83,000, 20% have a hit. Activity calls are given as the source filed them. The calls were made as follows: active = growth percent below 10; inactive = the rest.
Possible outcomes: class 1 (active), class 0 (inactive)

>>> group("Cc1cc(N2CCCCC2)nc(NC2CCCC(Nc3ccnc4cc(Cl)ccc34)C2)n1 (stereo unspecified)")
"class 1"
>>> group("O=c1ccccc(-c2ccc(Br)cc2)c1O")
"class 0"
>>> group("CNc1ccc(-c2cc(=O)oc3ccc(Cl)cc23)cc1")
"class 1"
>>> group("C=CC(COC(c1ccccc1)(c1ccccc1)c1ccccc1)N(CC)CC (stereo unspecified)")
"class 0"
>>> group("CN1CCN(c2ccc(Nc3c4ccccc4nc4ccccc34)cc2)CC1")
"class 0"
>>> group("COc1ccc2[nH]cc(-c3noc(C(=O)c4cn(C)c5ccc(F)cc45)n3)c2c1")
"class 0"
